Measured values drawn from patent US20200392228A1 for this set.

study_system: T1, mouse MAdCAM expressed on cells (mouse, UniProt Q61826 22-405)
T1 construct: whole, on cells
T1 sequence (looked up): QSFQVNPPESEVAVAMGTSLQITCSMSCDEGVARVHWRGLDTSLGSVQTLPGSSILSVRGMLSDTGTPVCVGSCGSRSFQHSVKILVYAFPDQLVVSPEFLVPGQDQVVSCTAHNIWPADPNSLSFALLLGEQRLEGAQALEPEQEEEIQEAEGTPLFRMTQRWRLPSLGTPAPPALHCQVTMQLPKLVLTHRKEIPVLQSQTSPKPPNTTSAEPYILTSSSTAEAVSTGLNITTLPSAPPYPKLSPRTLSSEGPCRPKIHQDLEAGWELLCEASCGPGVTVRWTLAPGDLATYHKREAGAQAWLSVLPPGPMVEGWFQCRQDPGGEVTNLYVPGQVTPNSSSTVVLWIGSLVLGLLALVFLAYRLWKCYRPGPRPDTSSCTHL
test_name: cell binding
measurement_name: binding result

Recorded results for 5 binders are shown here.
binder	measurement_name	result
MAdCAM antibody Clone ID 14 of Table 6 (scFv) (scFv) scFv: QVQLVQSGAEVKKPGSSVKVSCKASGYTFTDYHIHWVRQAPGQGLEWMGGIVPRSGSTTYAQKFQGRVTITADESTSTAYMELSSLRSEDTAVYYCAKDESSGWYYFDYWGQGTLVTVSSGGGGSGGGGSGGGGSGGGGSDIVMTQSPLSLPVTPGEPASISCRSSQSLLHSNGYNYLDWYLQKPGQSPQLLIYSAYNRASGVPDRFSGSGSGTDFTLKISRVEAEDVGVYYCMQALQTPLTFGQGTKVEIK	binding result	no binding
MAdCAM antibody Clone ID 37 of Table 6 (scFv) (scFv) scFv: QVQLVQSGAEVKKPGASVKVSCKASGYTFSKHFVHWVRQAPGQGLEWMGWMNPNSGNSGYAQKFQGRVTMTRDTSTSTVYMELSSLRSEDTAVYYCARGEGGYYYYGMDVWGQGTLVTVSSGGGGSGGGGSGGGGSGGGGSDIQMTQSPSSLSASVGDRVTITCRASQSISSWLAWYQQKPGKAPKLLIYAASTLQSGVPSRFSGSGSGTDFTLTISSLQPEDFATYYCQQSYSTPWTFGQGTKVEIK	binding result	no binding
MAdCAM antibody Clone ID 51 of Table 6 (scFv) (scFv) scFv: EVQLLESGGGLVQPGGSLRLSCAASGFTFNNYGMNWVRQAPGKGLEWVSRINSDGSSTSYADSVKGRFTISRDNSKNTLYLQMNSLRAEDTAVYYCARGAYYYYYMDVWGQGTLVTVSSGGGGSGGGGSGGGGSGGGGSEIVMTQSPATLSVSPGERATLSCRASQSVSGSYLAWYQQKPGQAPRLLIYATSSRASGIPARFSGSGSGTEFTLTISSLQSEDFAVYYCQQYYSGLTFGQGTKVEIK	binding result	no binding
MAdCAM antibody Clone ID 25 of Table 6 (scFv) (scFv) scFv: QVQLVQSGAEVKKPGASVKVSCKASGYTLTTWYMYWVRQAPGQGLEWMGWINPNRGATNYAQKFQGRVTMTRDTSTSTVYMELSSLRSEDTAVYYCAKGDLWGAMDVWGQGTLVTVSSGGGGSGGGGSGGGGSGGGGSDIQMTQSPSSLSASVGDRVTITCRASDNIGSWLAWYQQKPGKAPKLLIYAASSLQSGVPSRFSGSGSGTDFTLTISSLQPEDFATYYCQQGYSTPPTFGQGTKVEIK	binding result	no binding
MAdCAM antibody Clone ID 27 of Table 6 (scFv) (scFv) scFv: QVQLVQSGAEVKKPGASVKVSCKASGYTFTGYYIHWVRQAPGQGLEWMGWMNPNSGNTGYAQKFQGRVTMTRDTSTSTVYMELSSLRSEDTAVYYCARDPGFLGYCSGGSCYDGWFDPWGQGTLVTVSSGGGGSGGGGSGGGGSGGGGSDIQMTQSPSSLSASVGDRVTITCRASQSISSYLHWYQQKPGKAPKLLIYAASSLQSGVPSRFSGSGSGTDFTLTISSLQPEDFATYYCQQSYTAPYTFGQGTKLEIK	binding result	no binding

Now examine the next entry.
Consider the binder MAdCAM antibody Clone ID 42 of Table 6 (scFv) (scFv) scFv: QVQLVQSGAEVKKPGSSVKVSCKASGGTLSRYGVSWVRQAPGQGLEWMGGIIPIFGTTNYAQKFQGRVTITADESTSTAYMELSSLRSEDTAVYYCARDRVYYDSSGYPTWYFDLWGRGTLVTVSSGGGGSGGGGSGGGGSGGGGSEIVMTQSPATLSVSPGERATLSCRASQSVSSSYLAWYQQKPGQAPRLLIYGASTRATGIPARFSGSGSGTEFTLTISSLQSEDFAVYYCQQYGSSPITFGQGTKVEIK and give its recorded binding result.
no binding
